Hey, just so you know, these numbers are from patent US8759558B2.

Molecular target: PPARα (Homo sapiens, UniProt Q07869)
Sequence (Q07869 239-466 limits assumed): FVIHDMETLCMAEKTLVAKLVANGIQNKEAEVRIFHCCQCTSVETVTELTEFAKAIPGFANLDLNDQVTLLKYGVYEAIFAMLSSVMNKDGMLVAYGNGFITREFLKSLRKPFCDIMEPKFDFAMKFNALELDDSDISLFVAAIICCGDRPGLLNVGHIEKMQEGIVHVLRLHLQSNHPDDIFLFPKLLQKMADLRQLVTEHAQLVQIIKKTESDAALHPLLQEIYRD
Assay: PPARα activation in-vitro, mammalian-one-hybrid (M1H) luciferase reporter assay, concentration response
Settings: GAL4-DBD-PPARα-LBD, transiently transfected HEK293 cells
metric name: EC50 (nM)
Give your result in nM as a bare value.

Documented EC50 of CC/C=C\C/C=C\C/C=C\C/C=C\C/C=C\CCCCSC(CC)(CC)C(=O)O [Compound (12)] : 286
